Sourced from patent US20250099596A1

Assay: Pharmacokinetic evaluation, SD rat test
Format: in vivo
Settings: both sexes, rat, plasma, iv; SD rats, i.v., 1.0 mg/kg; read-out: Area under curve AUC0-t
Measured Metric: AUC(0-t) (ng·h/mL)
// note: answer is a bare numeric in ng·h/mL

In plain terms, CC(C)C[C@H]1CCc2cc(O)ccc2[C@H]1c1ccc(N2CCC(CN3CCN(c4ccc5c(c4)CN([C@H]4CCC(=O)NC4=O)C5=O)CC3)CC2)cc1 has a documented AUC(0-t) of 2640

* * *

Reported half-life values are given for each entry in this list.
Test: Pharmacokinetic evaluation, beagle test
Format: in vivo
Conditions: both sexes, beagle, dog, plasma, iv; beagles, i.v., 0.5 mg/kg; read-out: Half-life T1/2 (converted)
# output: bare number, implied unit h

>>> observed_measurement("CC(C)C[C@H]1CCc2cc(O)ccc2[C@H]1c1ccc(N2CCC(CN3CCN(c4ccc5c(c4)CN([C@H]4CCC(=O)NC4=O)C5=O)CC3)CC2)cc1")
9.7

Kindly consider the entry below.
// field: half-life; key: O=C1CCC(N2Cc3cc(N4CCN(CC5CCN(c6ccc([C@@H]7c8ccc(O)cc8CC[C@@H]7c7ccccc7)cc6)CC5)CC4)ccc3C2=O)C(=O)N1 (some centres unmarked) [Comparative Example 1, reference compound] ; value = 8.1

* * *

Assay: Pharmacokinetic evaluation, beagle test
Type: in vivo
Settings: both sexes, beagle, dog, plasma, iv; beagles, i.v., 0.5 mg/kg; read-out: Area under curve AUC0-t
Listed compounds paired with reported AUC(0-t)
Answers without a unit are incomplete; give the number and then its unit.

>>> observed_measurement("CC(C)C[C@H]1CCc2cc(O)ccc2[C@H]1c1ccc(N2CCC(CN3CCN(c4ccc5c(c4)CN([C@H]4CCC(=O)NC4=O)C5=O)CC3)CC2)cc1 [Example 26-1]")
"4070 ng·h/mL"

Now turn to the next compound.
Entry O=C1CCC(N2Cc3cc(N4CCN(CC5CCN(c6ccc([C@@H]7c8ccc(O)cc8CC[C@@H]7c7ccccc7)cc6)CC5)CC4)ccc3C2=O)C(=O)N1 (some centres unmarked) [Comparative Example 1, reference compound] , AUC(0-t) reported as 2680 ng·h/mL

* * *

Assay: Solubility in FassIF and FessIF solution
Type: physicochemical
Conditions: thermodynamic from solid, FessIF solution pH 5.0, 37° C., read-out: Solubility in FessIF solution
Measured Metric: solubility at 24 h (µM)
Reply numerically in µM, unit not repeated.

Short answer for CC(C)C[C@H]1CCc2cc(O)ccc2[C@H]1c1ccc(N2CCC(CN3CCN(c4ccc5c(c4)CN([C@H]4CCC(=O)NC4=O)C5=O)CC3)CC2)cc1 [Example 26-1] : solubility at 24 h was 553

* * *

Assay: Pharmacokinetic evaluation, SD rat test
Type: in vivo
Settings: both sexes, rat, plasma, iv; SD rats, i.v., 1.0 mg/kg; read-out: Half-life T1/2 (converted)
Measured Metric: half-life (h)
Record the value in h, omitting the unit from your answer.

What the record says about CC(C)C[C@H]1CCc2cc(O)ccc2[C@H]1c1ccc(N2CCC(CN3CCN(c4ccc5c(c4)CN([C@H]4CCC(=O)NC4=O)C5=O)CC3)CC2)cc1 : half-life is 4.8

* * *

Below: a set of entries, each annotated with reported Vd/F.
Experiment: Pharmacokinetic evaluation, beagle test
Format: in vivo
Settings: both sexes, beagle, dog, plasma, po; beagles, i.g., 2.0 mg/kg; read-out: Apparent distribution volume Vz/F
Reply numerically in L/kg, unit not repeated.

>>> observed_measurement("O=C1CCC(N2Cc3cc(N4CCN(CC5CCN(c6ccc([C@@H]7c8ccc(O)cc8CC[C@@H]7c7ccccc7)cc6)CC5)CC4)ccc3C2=O)C(=O)N1 (some centres unmarked) [Comparative Example 1, reference compound]")
5.5

Now examine the next entry.
Input CC(C)C[C@H]1CCc2cc(O)ccc2[C@H]1c1ccc(N2CCC(CN3CCN(c4ccc5c(c4)CN([C@H]4CCC(=O)NC4=O)C5=O)CC3)CC2)cc1 [Example 26-1] . Output Vd/F: 5.67
